All values here come from patent US20160220569A1.

Test: 14-day oral gavage toxicokinetic study in rats
Type: in vivo
Details: both sexes, rat, plasma, po, 5 mg/kg, Mean Compound 1 Plasma Concentration, rats, oral 5 mg/kg, Day 1, 12 h, Overall
experimental_endpoint: concentration at 12 h (ng/mL)
Give your result in ng/mL as a bare value.

[ask] Value lookup for concentration at 12 h; key = CN1CCN(c2ccc(Nc3ncc4cc5n(c4n3)C3(CCCCC3)CNC5=O)nc2)CC1
[reply] 168

---

Test: 14-day oral gavage toxicokinetic study in rats
Type: in vivo
Conditions: male, rat, plasma, po, 5 mg/kg, Mean Compound 1 Plasma Concentration, rats, oral 5 mg/kg, Day 1, 2 h, Male
Experimental: Plasma was obtained from blood samples collected from rats in a composite sampling scheme, with 3 samples collected per sex, per dose, at each target collection time, as illustrated in Table 21 to Table 25. […] The following parameters were determined: […] A value of 0 ng/mL was assigned to all values below the lower limit of quantitation (BLQ, <10.0 ng/mL). […] CL: Clearance (L/h/kg), calculated as the dose divided by AUC(0-t). […] Cmax/Dose: Normalized Cmax, calculated as Cmax divided by total dose. […]
experimental_endpoint: concentration at 2 h (ng/mL)
Give your result in ng/mL as a bare value.

[ask] Value lookup for concentration at 2 h; key = CN1CCN(c2ccc(Nc3ncc4cc5n(c4n3)C3(CCCCC3)CNC5=O)nc2)CC1
[reply] 254

---

Assay: 14-day oral gavage toxicokinetic study in rats
Assay type: in vivo
Settings: female, rat, plasma, po, 2 mg/kg, Mean Compound 1 Plasma Concentration, rats, oral 2 mg/kg, Day 1, 2 h, Female
experimental_endpoint: concentration at 2 h (ng/mL)
Give your result in ng/mL as a bare value.

[ask] Value lookup for concentration at 2 h; key = CN1CCN(c2ccc(Nc3ncc4cc5n(c4n3)C3(CCCCC3)CNC5=O)nc2)CC1
[reply] 196

---

Experiment: Compound 1 PK dosed Days 1-5 with topotecan
Format: in vivo, human
Conditions: human, plasma, intravenous, 200 mg/m^2 with Topotecan 0.75 mg/m^2 (Cohort 3), Day 4, Median; read-out: Cmax
experimental_endpoint: Cmax (ng/mL)
Give your result in ng/mL as a bare value.

[ask] Value lookup for Cmax; key = CN1CCN(c2ccc(Nc3ncc4cc5n(c4n3)C3(CCCCC3)CNC5=O)nc2)CC1 [Compound 1]
[reply] 1590

---

Assay: Topotecan PK following Compound 1 infusion
Assay type: in vivo, human
Conditions: human, plasma, intravenous, Topotecan 1.25 mg/m^2 (Cohort 2) with Compound 1 200 mg/m^2, Day 4, Median; read-out: t½ (converted)
experimental_endpoint: half-life

[ask] Value lookup for half-life; key = CC[C@@]1(O)C(=O)OCc2c1cc1n(c2=O)Cc2cc3c(CN(C)C)c(O)ccc3nc2-1.Cl [topotecan]
[reply] 5.39 h

---

Assay: Single escalating dose IV infusion pharmacokinetics in healthy volunteers (noncompartmental)
Type: in vivo, human
Conditions: both, human, plasma, intravenous, […]2, Cohort 6, […]^2, 0-24.5 hr data; noncompartmental; subjects 1-6, Mean, Min, Median, Max, Geometric Mean; read-out: Tmax
experimental_endpoint: Tmax (min)
Give your result in min as a bare value.

[ask] Value lookup for Tmax; key = CN1CCN(c2ccc(Nc3ncc4cc5n(c4n3)C3(CCCCC3)CNC5=O)nc2)CC1
[reply] 30

---

Assay: Compound 1 PK dosed Days 1-3 with etoposide and carboplatin
Type: in vivo, human
Conditions: human, plasma, intravenous, 200 mg/m2, 200 mg/m^2 with Etoposide and Carboplatin, Day 3, Geo. Mean; read-out: Cmax
experimental_endpoint: Cmax (ng/mL)
Give your result in ng/mL as a bare value.

[ask] Value lookup for Cmax; key = CN1CCN(c2ccc(Nc3ncc4cc5n(c4n3)C3(CCCCC3)CNC5=O)nc2)CC1
[reply] 1090

---

Experiment: 14-day oral gavage toxicokinetic study in rats
Type: in vivo
Details: female, rat, plasma, po, 15 mg/kg, Mean Compound 1 Plasma Concentration, rats, oral 15 mg/kg, Day 14, 2 h, Female
experimental_endpoint: concentration at 2 h (ng/mL)
Give your result in ng/mL as a bare value.

[ask] Value lookup for concentration at 2 h; key = CN1CCN(c2ccc(Nc3ncc4cc5n(c4n3)C3(CCCCC3)CNC5=O)nc2)CC1 [Compound 1]
[reply] 1490

---

Experiment: 14-day oral gavage toxicokinetic study in rats
Format: in vivo
Conditions: male, rat, plasma, po, 15 mg/kg, oral 15 mg/kg, Study Day 14, Male
experimental_endpoint: AUC(0-t) (ng·h/mL)
Give your result in ng·h/mL as a bare value.

[ask] Value lookup for AUC(0-t); key = CN1CCN(c2ccc(Nc3ncc4cc5n(c4n3)C3(CCCCC3)CNC5=O)nc2)CC1
[reply] 16300

---

Test: 14-day oral gavage toxicokinetic study in rats
Format: in vivo
Conditions: male, rat, plasma, po, 30 mg/kg, Individual Compound 1 Plasma Concentration, rats, daily oral 30 mg/kg, Day 1, Male, 1 h
experimental_endpoint: concentration at 1 h (ng/mL)
Give your result in ng/mL as a bare value.

[ask] Value lookup for concentration at 1 h; key = CN1CCN(c2ccc(Nc3ncc4cc5n(c4n3)C3(CCCCC3)CNC5=O)nc2)CC1 [Compound 1]
[reply] 1620

---

Assay: Compound 1 PK dosed Days 1-5 with topotecan
Format: in vivo, human
Settings: human, plasma, intravenous, Cohort 2 (Topotecan 1.25 mg/m^2); Compound 1 200 mg/m^2; Day 1; mean; read-out: Half-lives averaged (converted)
experimental_endpoint: half-life (h)
Give your result in h as a bare value.

[ask] Value lookup for half-life; key = CN1CCN(c2ccc(Nc3ncc4cc5n(c4n3)C3(CCCCC3)CNC5=O)nc2)CC1 [Compound 1]
[reply] 7.87

---

Assay: 14-day oral gavage toxicokinetic study in rats
Format: in vivo
Details: male, rat, plasma, po, 2 mg/kg, Mean Compound 1 Plasma Concentration, rats, oral 2 mg/kg, Day 1, 1 h, Male
experimental_endpoint: concentration at 1 h (ng/mL)
Give your result in ng/mL as a bare value.

[ask] Value lookup for concentration at 1 h; key = CN1CCN(c2ccc(Nc3ncc4cc5n(c4n3)C3(CCCCC3)CNC5=O)nc2)CC1 [Compound 1]
[reply] 57.1

---

Experiment: 14-day oral gavage toxicokinetic study in rats
Type: in vivo
Details: both sexes, rat, plasma, po, 5 mg/kg, oral 5 mg/kg, Study Day 14, Overall
experimental_endpoint: AUC(0-inf) (ng·h/mL)
Give your result in ng·h/mL as a bare value.

[ask] Value lookup for AUC(0-inf); key = CN1CCN(c2ccc(Nc3ncc4cc5n(c4n3)C3(CCCCC3)CNC5=O)nc2)CC1
[reply] 4930

---

Assay: Single escalating dose IV infusion pharmacokinetics in healthy volunteers (noncompartmental)
Assay type: in vivo, human
Details: both sexes, human, plasma, iv, 12 mg/m^2, Compound 1 Concentration, Cohort 2, 12 mg/m^2 IV; Time 0.75 h; r7-9=Subjects 1-3,r11=Mean,r13=Min,r14=Median,r15=Max,r17=Geometric Mean
experimental_endpoint: concentration at 0.75 h (ng/mL)
Give your result in ng/mL as a bare value.

[ask] Value lookup for concentration at 0.75 h; key = CN1CCN(c2ccc(Nc3ncc4cc5n(c4n3)C3(CCCCC3)CNC5=O)nc2)CC1
[reply] 33.2

---

Test: Single escalating dose IV infusion pharmacokinetics in healthy volunteers (noncompartmental)
Format: in vivo, human
Details: both sexes, human, plasma, iv, 24 mg/m2, Cohort 3, 24 mg/m^2 IV; r6-8=Subjects 1-3,r10=Mean,r12=Min,r13=Median,r14=Max,r16=Geometric Mean; read-out: Tmax
experimental_endpoint: Tmax (min)
Give your result in min as a bare value.

[ask] Value lookup for Tmax; key = CN1CCN(c2ccc(Nc3ncc4cc5n(c4n3)C3(CCCCC3)CNC5=O)nc2)CC1
[reply] 30

---

Assay: Topotecan PK following Compound 1 infusion
Format: in vivo, human
Conditions: human, plasma, intravenous, Topotecan 0.75 mg/m^2 (Cohort 3) with Compound 1 200 mg/m^2, Day 4, Median; read-out: t½ (converted)
experimental_endpoint: half-life (h)
Give your result in h as a bare value.

[ask] Value lookup for half-life; key = CC[C@@]1(O)C(=O)OCc2c1cc1n(c2=O)Cc2cc3c(CN(C)C)c(O)ccc3nc2-1.Cl [topotecan]
[reply] 4.7

---

Test: Single escalating dose IV infusion pharmacokinetics in healthy volunteers (noncompartmental)
Assay type: in vivo, human
Settings: both sexes, human, plasma, iv, 12 mg/m2, Cohort 2, 12 mg/m^2 IV; r6-8=Subjects 1-3,r10=Mean,r12=Min,r13=Median,r14=Max,r16=Geometric Mean; read-out: Cmax
experimental_endpoint: Cmax (ng/mL)
Give your result in ng/mL as a bare value.

[ask] Value lookup for Cmax; key = CN1CCN(c2ccc(Nc3ncc4cc5n(c4n3)C3(CCCCC3)CNC5=O)nc2)CC1
[reply] 122

---

Assay: Compound 1 PK dosed Days 1-5 with topotecan
Type: in vivo, human
Conditions: human, plasma, intravenous, 200 mg/m^2 with Topotecan […]^2 (Cohort 1), Day 1, Mean; read-out: t½ (converted)
experimental_endpoint: half-life (h)
Give your result in h as a bare value.

[ask] Value lookup for half-life; key = CN1CCN(c2ccc(Nc3ncc4cc5n(c4n3)C3(CCCCC3)CNC5=O)nc2)CC1 [Compound 1]
[reply] 5.92
